- test_target: human μ opiate receptor (Homo sapiens)
- Construct: purchased PerkinElmer Life Sciences, Zaventem, Belgium RB-HOM; host or cells: CHO-K1 cells (membrane preparation)
- Sequence (P35372 whole entry): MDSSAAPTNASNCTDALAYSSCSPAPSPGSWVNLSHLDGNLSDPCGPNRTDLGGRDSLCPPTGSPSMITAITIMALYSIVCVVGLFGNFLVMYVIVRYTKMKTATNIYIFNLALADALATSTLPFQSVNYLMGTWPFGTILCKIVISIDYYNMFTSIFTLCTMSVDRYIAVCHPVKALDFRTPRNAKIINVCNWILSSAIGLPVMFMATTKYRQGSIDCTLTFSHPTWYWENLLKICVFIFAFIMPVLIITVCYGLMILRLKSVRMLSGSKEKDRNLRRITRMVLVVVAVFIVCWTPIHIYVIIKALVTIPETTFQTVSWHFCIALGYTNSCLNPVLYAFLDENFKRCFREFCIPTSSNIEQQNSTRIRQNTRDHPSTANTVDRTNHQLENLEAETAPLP
- protocol_description: Affinity for the human μ opiate receptor ([3H]-naloxone displacement, CHO-K1 receptor membrane preparation, SPA)
- Assay type: binding
- condition_context: test concentration of 1 μM
# maps each entry to its μ (binding on the μ opioid receptor, % inhibition)
Write the number in % without appending the unit.

Illustrative cases are given below, each with its answer.
>  <compound>
CN(C)C(c1ccc(F)cc1)C1CCC(NC(=O)COCCN(C)S(=O)(=O)c2ccc(Cl)cc2)CC1 (stereo not shown)

>  <reading>
51

$$$$
>  <compound>
CN(C)C(CCc1ccccc1)C1CCC(CNC(=O)COC2CCN(S(=O)(=O)c3ccccc3)C2)CC1 (stereo not shown)

>  <reading>
23

$$$$
>  <compound>
Cc1cc(C)c(S(=O)(=O)N(C)CCOCC(=O)NCCC2CCC(C(c3cccc(F)c3)N(C)C)CC2)c(C)c1 (stereo not shown)

>  <reading>
−5

$$$$

Qu. Form: Entry = CN(C)C(c1ccccc1)C1CCC(NC(=O)COCc2c(N(C)S(=O)(=O)c3ccc(Cl)c(Cl)c3)sc3c2CCCC3)CC1 (stereo not shown) | System = human μ opiate receptor (Homo sapiens) | μ (binding on the μ opioid receptor, % inhibition) = ____
Ans. 66

Qu. Hello, I am looking for reported μ (binding on the μ opioid receptor, % inhibition) with human μ opiate receptor (Homo sapiens) for CN(C)C(c1cccc(F)c1)C1CCC(CCNC(=O)COC2CCN(S(=O)(=O)c3ccccc3)CC2)CC1 (stereo not shown) . Could you help?
Ans. 56

Qu. Find μ (binding on the μ opioid receptor, % inhibition) (human μ opiate receptor (Homo sapiens)) for the entry Cc1ccc(S(=O)(=O)N2CCC(OCC(=O)NCCC3CCC(C(c4cccs4)N(C)C)CC3)C2)cc1 (stereo not shown)
Ans. 73

Qu. Please tell me: μ (binding on the μ opioid receptor, % inhibition) of CN(C)C(c1cccc(F)c1)C1CCC(CNC(=O)COC2CCN(S(=O)(=O)c3ccc(Cl)cc3)C2)CC1 (stereo not shown) , system human μ opiate receptor (Homo sapiens)?
Ans. 80

* * *

- test_target: serotonin (5-HT) reuptake (Rattus norvegicus, UniProt P31652)
- Construct: synaptosomes are freshly isolated from areas of the rat brain; from tissue; host or cells: rat brain synaptosomes (P2 fraction)
- Sequence (P31652 whole entry): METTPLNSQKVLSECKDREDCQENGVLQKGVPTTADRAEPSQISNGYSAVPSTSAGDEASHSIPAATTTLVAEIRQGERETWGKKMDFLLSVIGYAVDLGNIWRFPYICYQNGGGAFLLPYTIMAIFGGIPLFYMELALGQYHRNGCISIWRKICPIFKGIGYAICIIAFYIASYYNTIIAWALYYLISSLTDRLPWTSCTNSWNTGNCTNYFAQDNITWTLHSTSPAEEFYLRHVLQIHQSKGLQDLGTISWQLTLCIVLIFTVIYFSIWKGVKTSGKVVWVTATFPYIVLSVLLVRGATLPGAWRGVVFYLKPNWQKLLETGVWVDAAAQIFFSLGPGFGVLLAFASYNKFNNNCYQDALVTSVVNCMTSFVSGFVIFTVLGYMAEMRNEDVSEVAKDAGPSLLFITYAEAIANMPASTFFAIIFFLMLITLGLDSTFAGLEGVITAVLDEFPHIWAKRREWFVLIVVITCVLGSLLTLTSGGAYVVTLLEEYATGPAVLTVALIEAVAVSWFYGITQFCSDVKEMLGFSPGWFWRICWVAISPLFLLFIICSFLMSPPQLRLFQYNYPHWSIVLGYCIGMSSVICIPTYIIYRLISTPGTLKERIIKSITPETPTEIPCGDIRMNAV
- protocol_description: Inhibition of serotonin (5HT) reuptake in synaptosomes from rat brain
- Type: biochemical
- condition_context: test concentration of 10 μM
test_readout: 5-HT (inhibition of reuptake of serotonin, % inhibition) (%)
Provide the reading as a plain figure in %.

Qu. Fill blank: measured 5-HT (inhibition of reuptake of serotonin, % inhibition) of the compound CN(C)C(c1ccc(F)cc1)C1CCC(NC(=O)COCCN(Cc2ccccc2)S(=O)(=O)c2ccccc2)CC1 (stereo not shown) [Example 336] is ____.
Ans. 96

Qu. Any idea what 5-HT (inhibition of reuptake of serotonin, % inhibition) was measured for Cc1cc(C)c(S(=O)(=O)N(C)CCOCC(=O)NCCC2CCC(C(c3ccc(F)cc3)N(C)C)CC2)c(C)c1 (stereo not shown) [Example 417] ?
Ans. 91

Qu. Recorded 5-HT (inhibition of reuptake of serotonin, % inhibition) of CCN(CCOCC(=O)NCCC1CCC(C(c2cccc(F)c2)N(C)C)CC1)S(=O)(=O)c1c(C)cc(OC)c(C)c1C (stereo not shown) [Example 209] , please.
Ans. 94

Qu. Can you look up the measured 5-HT (inhibition of reuptake of serotonin, % inhibition) of CN(C)C(c1ccc(F)cc1)C1CCC(CCNC(=O)COC2CCN(S(=O)(=O)c3ccc(Cl)cc3)C2)CC1 (stereo not shown) [Example 464] for me?
Ans. 88

Qu. Param item = COc1cc(C)c(S(=O)(=O)N2CCC(OCC(=O)NCCC3CCC(C(c4ccc(Cl)cc4)N(C)C)CC3)CC2)c(C)c1C (stereo not shown) [Example 472] ; retrieve measured 5-HT (inhibition of reuptake of serotonin, % inhibition).
Ans. 95

Qu. What measured 5-HT (inhibition of reuptake of serotonin, % inhibition) goes with COc1ccc(S(=O)(=O)N2CCCCC2COCC(=O)NCCC2CCC(C(c3cccc(F)c3)N(C)C)CC2)c(OC)c1 (stereo not shown) [Example 281] ?
Ans. 89

Qu. Data request, read-out 5-HT (inhibition of reuptake of serotonin, % inhibition), for CN(C)C(c1ccccc1)C1CCC(NC(=O)COCc2c(N(C)S(=O)(=O)c3ccc(Cl)c(Cl)c3)sc3c2CCCC3)CC1 (stereo not shown) [Example 369]
Ans. 66

* * *

Listing of recorded inhibition at 10 µM by entry.
- test_target: human bradykinin 1 receptor (B1R) (Homo sapiens, UniProt P46663)
- Construct: expressed in transfected cells; host or cells: CHO K1 cells
- Sequence (P46663 whole entry): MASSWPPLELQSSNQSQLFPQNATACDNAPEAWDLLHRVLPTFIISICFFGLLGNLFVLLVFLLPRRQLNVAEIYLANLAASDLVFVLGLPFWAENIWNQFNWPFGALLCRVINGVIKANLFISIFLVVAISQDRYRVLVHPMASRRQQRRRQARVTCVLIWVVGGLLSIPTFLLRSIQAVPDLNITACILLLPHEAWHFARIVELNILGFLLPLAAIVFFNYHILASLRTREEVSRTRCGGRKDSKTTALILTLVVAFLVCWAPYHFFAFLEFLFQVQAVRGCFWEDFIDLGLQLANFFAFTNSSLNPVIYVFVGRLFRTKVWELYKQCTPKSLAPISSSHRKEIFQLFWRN
- protocol_description: Functional investigation on the human bradykinin 1 receptor (B1R), Ca2+ FLIPR assay in CHO K1 hB1R cells
- Type: cell-based
- condition_context: CHO-K1, B1R antagonism human; test substance 10 μM; Ca2+ FLIPR, CHO K1 hB1R cells; read-out: B1R Ant. h [10 μM] % Inhibition
Form entry: value (%) — number only.

Recorded inhibition at 10 µM, per entry:
>  <compound>
COc1cc(C)c(S(=O)(=O)N2CCCCC2COCC(=O)NCC2CCC(C(CCc3ccccc3)N3CCOCC3)CC2)c(C)c1 (stereo not shown)

>  <reading>
104

$$$$
>  <compound>
COc1cc(C)c(S(=O)(=O)N2CCC(OCC(=O)NCC3CCC(C(c4cccs4)N(C)C)CC3)C2)c(C)c1C (stereo not shown)

>  <reading>
52

$$$$
>  <compound>
CN(C)C(c1ccccc1)C1CCC(NC(=O)CCOCN(C)S(=O)(=O)c2c(Cl)cc(Cl)cc2Cl)CC1 (stereo not shown)

>  <reading>
103

$$$$

Qu. Could you share which inhibition at 10 µM value was measured for CN1CCN(C(c2ccccc2)C2CCC(NC(=O)COCCN(C)S(=O)(=O)c3c(Cl)cccc3Cl)CC2)CC1 (stereo not shown) ?
Ans. 95

Qu. Given the entry O=C(COC1CCCN(S(=O)(=O)c2c(Cl)cc(Cl)cc2Cl)C1)NCC1CCC(C(CCc2ccccc2)N2CCCC2)CC1 (stereo not shown) , report its measured inhibition at 10 µM.
Ans. 92

Qu. Record request: inhibition at 10 µM value, item COc1ccc(S(=O)(=O)N2CCCCC2COCC(=O)NCCC2CCC(C(c3cccc(F)c3)N(C)C)CC2)cc1OC (stereo not shown)
Ans. -16

Qu. Which inhibition at 10 µM value belongs to CN(C)C(c1cccs1)C1CCC(NC(=O)COCCN(C)S(=O)(=O)c2ccc(Cl)cc2)CC1 (stereo not shown) ?
Ans. 7

Qu. # inhibition at 10 µM lookup, item CN(C)C(c1cccs1)C1CCC(CCNC(=O)COCCN2CCN(S(=O)(=O)c3ccccc3)CC2)CC1 (stereo not shown)
Ans. -8

Qu. # lookup: inhibition at 10 µM of COc1ccc(S(=O)(=O)N2CCC(OCC(=O)NCCC3CCC(C(c4cccs4)N(C)C)CC3)C2)cc1OC (stereo not shown)
Ans. -5

Qu. Reported inhibition at 10 µM, compound COc1cc(C)c(S(=O)(=O)N2CCC(OCC(=O)NC3CCC(C(c4cccs4)N(C)C)CC3)C2)c(C)c1C (stereo not shown) : ____
Ans. 37

* * *

Entries and their 5-HT (inhibition of reuptake of serotonin, % inhibition)
- test_target: serotonin (5-HT) reuptake (Rattus norvegicus, UniProt P31652)
- Construct: synaptosomes are freshly isolated from areas of the rat brain; from tissue; host or cells: rat brain synaptosomes (P2 fraction)
- protocol_description: Inhibition of serotonin (5HT) reuptake in synaptosomes from rat brain
- Assay type: biochemical
- condition_context: test concentration of 10 μM
Report the figure in % without appending any unit label.

A selection of reference data follows.
>  <molecule>
CCN(CCOCC(=O)NCC1CCC(C(CCc2ccccc2)N(C)C)CC1)S(=O)(=O)c1c(C)cc(OC)c(C)c1C (stereo not shown)

>  <reading>
84

$$$$
>  <molecule>
CN(C)C(c1ccc(F)cc1)C1CCC(CNC(=O)COCCN(C)S(=O)(=O)c2ccc(F)cc2)CC1 (stereo not shown)

>  <reading>
103

$$$$
>  <molecule>
CN(C)C(c1cccc(F)c1)C1CCC(CNC(=O)COCCN(C)S(=O)(=O)c2cccc(C(F)(F)F)c2)CC1 (stereo not shown)

>  <reading>
92

$$$$

Below: the item to evaluate.
Qu. Reported 5-HT (inhibition of reuptake of serotonin, % inhibition), molecule CN(C)C(c1ccc(Cl)cc1)C1CCC(CNC(=O)COC2CCCN(S(=O)(=O)c3ccccc3)C2)CC1 (stereo not shown) : ____
Ans. 92

* * *

- test_target: human bradykinin 1 receptor (B1R) (Homo sapiens, UniProt P46663)
- Construct: expressed in transfected cells; host or cells: CHO K1 cells
- protocol_description: Functional investigation on the human bradykinin 1 receptor (B1R), Ca2+ FLIPR assay in CHO K1 hB1R cells
- Format: cell-based
- condition_context: CHO-K1, B1R antagonism human; test substance 10 μM; Ca2+ FLIPR, CHO K1 hB1R cells; read-out: B1R Ant. h [10 μM] % Inhibition
test_readout: inhibition at 10 µM (%)
Quick note: give the figure in %, leave out the unit.

>  <compound>
CCN(CCOCC(=O)NCC1CCC(C(c2cccc(F)c2)N(C)C)CC1)S(=O)(=O)c1c(C)cc(OC)c(C)c1C (stereo not shown)

>  <test_readout>
inhibition at 10 µM

>  <reading>
76

$$$$
>  <compound>
Cc1cc(Cl)cc(Cl)c1-c1noc(C(=O)NCC(=O)NC2CCC(C(c3ccccc3)N(C)C)CC2)n1 (stereo not shown)

>  <test_readout>
inhibition at 10 µM

>  <reading>
73

$$$$
>  <compound>
CN(C)C(c1cccs1)C1CCC(NC(=O)COCCN(C)S(=O)(=O)c2cccc(C(F)(F)F)c2)CC1 (stereo not shown)

>  <test_readout>
inhibition at 10 µM

>  <reading>
16

$$$$
>  <compound>
CN(C)C(c1ccccc1)C1CCC(CNC(=O)COC2CCN(S(=O)(=O)c3ccc(Cl)cc3)C2)CC1 (stereo not shown)

>  <test_readout>
inhibition at 10 µM

>  <reading>
-10

$$$$

Qu. Entry COc1cc(C)c(S(=O)(=O)N(C)CCOCC(=O)NC2CCC(C(c3ccccc3)N3CCOCC3)CC2)c(C)c1 (stereo not shown) has what inhibition at 10 µM?
Ans. 98

Qu. Quick check: inhibition at 10 µM of CN(C)C(c1cccs1)C1CCC(CNC(=O)COCCN(Cc2ccccc2)S(=O)(=O)c2ccccc2)CC1 (stereo not shown) ?
Ans. -4

Qu. Which inhibition at 10 µM value is on record for CN(C)C(c1cccs1)C1CCC(CCNC(=O)COC2CCCN(S(=O)(=O)c3ccccc3)C2)CC1 (stereo not shown) ?
Ans. -3

These data points were gathered from patent US8106055B2.
